We begin with a simple list: items and their reported pIC50.
Molecular target: PI3Kδ (Homo sapiens)
Construct: purchased Millipore Corporation 14-604-K
Sequence (O00329 whole entry): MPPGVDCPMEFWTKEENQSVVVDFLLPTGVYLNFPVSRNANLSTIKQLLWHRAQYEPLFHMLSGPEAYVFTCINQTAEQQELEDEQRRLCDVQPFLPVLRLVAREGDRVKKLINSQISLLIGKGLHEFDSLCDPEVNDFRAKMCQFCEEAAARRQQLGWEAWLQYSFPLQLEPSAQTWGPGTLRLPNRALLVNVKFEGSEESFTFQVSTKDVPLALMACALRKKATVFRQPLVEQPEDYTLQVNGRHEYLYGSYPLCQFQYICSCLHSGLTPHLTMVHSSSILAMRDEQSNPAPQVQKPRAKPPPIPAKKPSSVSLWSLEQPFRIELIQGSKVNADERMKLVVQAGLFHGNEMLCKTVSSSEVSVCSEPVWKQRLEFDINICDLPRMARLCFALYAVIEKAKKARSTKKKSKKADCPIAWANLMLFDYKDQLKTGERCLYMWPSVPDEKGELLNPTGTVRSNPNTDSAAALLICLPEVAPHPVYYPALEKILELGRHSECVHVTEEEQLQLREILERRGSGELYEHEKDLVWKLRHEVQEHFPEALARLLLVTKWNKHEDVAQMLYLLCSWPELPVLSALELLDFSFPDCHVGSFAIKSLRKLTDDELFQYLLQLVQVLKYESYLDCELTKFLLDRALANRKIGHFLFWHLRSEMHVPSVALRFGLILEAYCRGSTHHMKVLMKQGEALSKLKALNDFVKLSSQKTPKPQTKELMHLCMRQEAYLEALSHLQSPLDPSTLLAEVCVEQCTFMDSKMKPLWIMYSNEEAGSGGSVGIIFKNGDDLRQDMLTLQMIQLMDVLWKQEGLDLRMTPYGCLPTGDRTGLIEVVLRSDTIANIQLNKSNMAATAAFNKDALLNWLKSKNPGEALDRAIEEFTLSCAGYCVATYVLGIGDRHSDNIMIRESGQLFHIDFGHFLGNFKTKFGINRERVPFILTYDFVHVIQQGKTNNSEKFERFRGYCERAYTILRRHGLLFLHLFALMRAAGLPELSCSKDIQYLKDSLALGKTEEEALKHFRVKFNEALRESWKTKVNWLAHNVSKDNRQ
Sequence (P27986 whole entry partner): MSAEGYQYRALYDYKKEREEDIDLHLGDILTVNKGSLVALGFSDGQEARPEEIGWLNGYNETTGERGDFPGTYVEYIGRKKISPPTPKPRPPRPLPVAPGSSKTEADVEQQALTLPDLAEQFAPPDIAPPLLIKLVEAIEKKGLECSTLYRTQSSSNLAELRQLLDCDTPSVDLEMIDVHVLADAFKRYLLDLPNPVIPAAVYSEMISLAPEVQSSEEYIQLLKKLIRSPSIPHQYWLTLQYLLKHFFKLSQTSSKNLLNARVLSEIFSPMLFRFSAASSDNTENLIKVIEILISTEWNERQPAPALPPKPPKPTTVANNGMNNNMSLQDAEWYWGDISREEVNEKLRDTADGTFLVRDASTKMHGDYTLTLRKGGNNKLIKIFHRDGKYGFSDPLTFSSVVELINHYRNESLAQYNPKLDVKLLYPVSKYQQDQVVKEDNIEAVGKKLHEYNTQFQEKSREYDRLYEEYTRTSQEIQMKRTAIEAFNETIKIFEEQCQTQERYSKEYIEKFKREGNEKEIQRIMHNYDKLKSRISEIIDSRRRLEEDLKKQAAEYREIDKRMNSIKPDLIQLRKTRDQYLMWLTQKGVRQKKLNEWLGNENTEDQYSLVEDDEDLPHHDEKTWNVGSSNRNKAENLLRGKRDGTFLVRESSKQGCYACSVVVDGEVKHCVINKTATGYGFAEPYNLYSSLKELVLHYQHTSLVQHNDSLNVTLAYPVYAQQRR
Assay: PI3-Kinase HTRF assay, PI3Kδ
Assay type: biochemical
Settings: column bins 1 μM to 100 nM (given as 100-1000) and Less than 100 nM; 10 μM ATP, PIP2 at 10 μM
pIC50: −log10 of the molar value.

# RECORD_SMILES, pIC50
measured = [
    ("CCOc1cncc(-c2cccc3cc([C@H](C)Nc4nc(N)ncc4C#N)n(-c4ccccc4)c(=O)c23)c1", "> 7.00"),
]

Data request, read-out pIC50, for "CCc1ncc(-c2cccc3nc([C@H](C)Nc4nc(N)ncc4C#N)n(-c4ccccc4)c(=O)c23)cn1"
> 7.00

Look at this compound and give its reported pIC50. "C[C@H](Nc1nc(N)ncc1C#N)c1cc2cccc(-c3cccc(N(C)S(C)(=O)=O)c3)c2c(=O)n1-c1ccccc1"
> 7.00

* * *

Test system: phospho-AKT in RAW 264.7 cells (PI3Kγ)
Assay: PI3Kγ selective assay, phospho-AKT in RAW 264.7 cells
Type: cell-based
Conditions: Mus musculus, RAW264.7; stimulated with C5a; ranges less than 100 nM and between 100 nM and 1 μM (given as 100-1000); read-out: IC50 for phospho-AKT, RAW 264.7 cell model
PARAMETER_MEASURED: IC50

Sample records with IC50:
# COMPOUND, IC50
data = [
    ("C=CS(=O)(=O)Nc1cccc(-c2cnc(N)nc2N[C@@H](C)c2cc3cccc(Cl)c3c(=O)n2-c2ccccc2)c1 [Compound 415]", "< 0.1 µM"),
    ("C[C@H](Nc1nc(N)ncc1C#N)c1cc2cccc(Cl)c2c(=O)n1-c1cc(F)cc(F)c1 [Compound 273]", "0.1 to 1 µM"),
    ("COc1nc(-c2cnc(N)nc2N[C@@H](C)c2cc3cccc(-c4ccc(=O)n(C)c4)c3c(=O)n2-c2ccccc2)cs1 [Compound 391]", "0.1 to 1 µM"),
]

Moving on to another compound below.
# get_value(readout='IC50', item= COc1cccc(-n2c([C@H](C)Nc3nc(N)ncc3C#N)cc3cccc(Cl)c3c2=O)c1 [Compound 288] )
< 0.1 µM

* * *

Target: PI3Kα (Homo sapiens, UniProt P42336)
Construct: purchased Millipore Corporation 14-602-K
Sequence (P42336 whole entry): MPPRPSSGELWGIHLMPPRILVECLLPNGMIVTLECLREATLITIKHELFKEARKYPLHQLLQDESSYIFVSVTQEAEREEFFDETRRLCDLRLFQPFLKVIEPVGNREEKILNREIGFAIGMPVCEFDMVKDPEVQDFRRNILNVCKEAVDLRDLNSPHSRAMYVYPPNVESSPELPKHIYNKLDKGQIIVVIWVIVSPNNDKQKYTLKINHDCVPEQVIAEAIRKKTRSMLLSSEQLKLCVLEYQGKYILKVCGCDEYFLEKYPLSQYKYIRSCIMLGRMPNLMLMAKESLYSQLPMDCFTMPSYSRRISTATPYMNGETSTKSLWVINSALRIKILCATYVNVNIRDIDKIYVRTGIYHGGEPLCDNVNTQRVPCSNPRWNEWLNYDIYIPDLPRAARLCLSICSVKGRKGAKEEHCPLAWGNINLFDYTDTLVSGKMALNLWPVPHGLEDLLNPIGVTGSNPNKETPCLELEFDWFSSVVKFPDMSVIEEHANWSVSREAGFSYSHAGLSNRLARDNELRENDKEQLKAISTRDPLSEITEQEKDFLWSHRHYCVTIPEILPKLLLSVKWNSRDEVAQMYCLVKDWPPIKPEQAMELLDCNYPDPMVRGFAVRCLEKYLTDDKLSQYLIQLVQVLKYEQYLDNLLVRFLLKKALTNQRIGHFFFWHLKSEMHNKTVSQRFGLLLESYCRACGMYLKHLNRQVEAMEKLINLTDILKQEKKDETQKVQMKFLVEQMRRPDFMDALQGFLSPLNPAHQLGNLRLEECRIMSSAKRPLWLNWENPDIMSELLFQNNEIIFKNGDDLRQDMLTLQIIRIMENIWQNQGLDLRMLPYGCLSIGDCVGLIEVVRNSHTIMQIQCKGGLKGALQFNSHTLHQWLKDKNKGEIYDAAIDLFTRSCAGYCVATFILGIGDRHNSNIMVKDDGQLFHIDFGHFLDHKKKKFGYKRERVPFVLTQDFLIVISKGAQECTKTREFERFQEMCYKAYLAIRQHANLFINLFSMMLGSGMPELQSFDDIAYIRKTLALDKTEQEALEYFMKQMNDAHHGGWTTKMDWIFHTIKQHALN
Sequence (P27986 whole entry partner): as the sequence (P27986 whole entry partner) above
Assay: PI3-Kinase HTRF assay, PI3Kα
Assay type: biochemical
Conditions: bins Greater than 10 μM and Greater than 1 μM to 10 μM; 10 μM ATP, PIP2 at 10 μM; read-out: IC50 P13Kα
Description: A PI3-Kinase HTRF® assay kit (cat No. 33-016) purchased from Millipore Corporation was used to screen compounds provided herein. […] The biotinylated PIP3 and the GST-tagged PH domain recruited fluorophores (Streptavidin-Allophycocyanin and Europium-labeled anti-GST respectively) to form the fluorescence resonance energy transfer (FRET) architecture, generating a stable time-resolved FRET signal. […]
pIC50: −log10 of the molar value.
PARAMETER_MEASURED: pIC50

# MOLECULE, pIC50
rows = [
    ("CCc1ncc(-c2cccc3nc([C@H](C)Nc4nc(N)ncc4C#N)n(-c4ccccc4)c(=O)c23)cn1 [Compound 60]", "< 5.00"),
    ("C[C@H](Nc1nc(N)ncc1-c1cccc(S(=O)(=O)C2CC2)c1)c1cc2cccc(Cl)c2c(=O)n1-c1ccccc1 [Compound 417]", "5.00 to 6.00"),
    ("Cc1ncc(-c2cccc3cc([C@H](C)Nc4nc(N)ncc4C#N)n(-c4ccccc4)c(=O)c23)cn1 [Compound 55]", "5.00 to 6.00"),
]

Please look at the following molecule next.
Value lookup for pIC50; key = C[C@H](Nc1nc(N)ncc1C#N)c1cc2cccc(-c3ccnc(N)c3)c2c(=O)n1-c1ccccc1 [Compound 187]
5.00 to 6.00

* * *

Consider the following compounds and their measured pIC50 readings.
Target: PI3Kγ (Homo sapiens, UniProt P48736)
Construct: purchased Millipore Corporation 14-558-K
Sequence (P48736 whole entry): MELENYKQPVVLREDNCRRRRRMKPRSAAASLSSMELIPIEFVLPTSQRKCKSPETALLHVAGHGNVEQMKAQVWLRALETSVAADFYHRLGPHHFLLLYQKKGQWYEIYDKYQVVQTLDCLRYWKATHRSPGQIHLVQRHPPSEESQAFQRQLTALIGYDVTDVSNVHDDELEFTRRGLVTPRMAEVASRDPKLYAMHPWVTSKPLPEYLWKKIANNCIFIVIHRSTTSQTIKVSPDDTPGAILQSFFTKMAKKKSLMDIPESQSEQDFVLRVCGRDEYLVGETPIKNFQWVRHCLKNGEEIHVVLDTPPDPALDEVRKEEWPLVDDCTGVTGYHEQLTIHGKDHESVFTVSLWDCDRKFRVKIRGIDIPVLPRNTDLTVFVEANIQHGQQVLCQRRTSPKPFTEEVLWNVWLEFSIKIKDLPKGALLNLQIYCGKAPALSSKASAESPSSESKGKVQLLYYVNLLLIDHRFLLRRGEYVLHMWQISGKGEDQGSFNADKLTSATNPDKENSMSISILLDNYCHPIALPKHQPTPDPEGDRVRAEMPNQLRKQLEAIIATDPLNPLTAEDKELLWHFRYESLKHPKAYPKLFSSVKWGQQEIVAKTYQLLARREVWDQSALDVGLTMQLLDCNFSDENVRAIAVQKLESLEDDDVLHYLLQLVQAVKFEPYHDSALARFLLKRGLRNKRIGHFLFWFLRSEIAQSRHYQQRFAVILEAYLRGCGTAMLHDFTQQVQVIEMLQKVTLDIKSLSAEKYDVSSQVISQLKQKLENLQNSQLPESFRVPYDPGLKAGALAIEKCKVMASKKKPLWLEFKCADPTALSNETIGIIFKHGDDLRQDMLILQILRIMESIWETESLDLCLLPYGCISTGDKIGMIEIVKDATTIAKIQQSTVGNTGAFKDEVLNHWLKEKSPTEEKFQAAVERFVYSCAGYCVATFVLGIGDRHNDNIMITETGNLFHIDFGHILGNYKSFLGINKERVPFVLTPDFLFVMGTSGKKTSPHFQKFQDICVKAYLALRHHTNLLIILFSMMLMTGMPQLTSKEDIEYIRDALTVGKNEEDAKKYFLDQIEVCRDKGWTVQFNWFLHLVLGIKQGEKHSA
Test: PI3-Kinase HTRF assay, PI3Kγ
Format: biochemical
Settings: bins Greater than 10 μM and Greater than 1 μM to 10 μM; 10 μM ATP, PIP2 at 10 μM
pIC50: −log10 of the molar value.

# RECORD_SMILES, TARGET_OR_SYSTEM, EXPERIMENTAL_RESULT
rows = [
    ("C[C@H](Nc1cc(Cl)ncn1)c1cc2cccc(Cl)c2c(=O)n1-c1ccccc1", "PI3Kγ (Homo sapiens, UniProt P48736)", "5.00 to 6.00"),
    ("C[C@H](Nc1ncnc(N)c1C#N)c1cc2cccc(Cl)c2c(C(=O)NC2CCOCC2)n1", "PI3Kγ (Homo sapiens, UniProt P48736)", "5.00 to 6.00"),
]

Next compound, pIC50 to be filled in.
Report pIC50 for "C[C@H](Nc1nc(N)ncc1C#N)c1cc2cccc(-c3ccn(C)c(=O)c3)c2c(=O)n1-c1ccccc1" please.
5.00 to 6.00

* * *

System: phospho-AKT in RAW 264.7 cells (PI3Kγ)
Assay: PI3Kγ selective assay, phospho-AKT in RAW 264.7 cells
Assay type: cell-based
Details: Mus musculus, RAW264.7; stimulated with C5a; ranges less than 100 nM and between 100 nM and 1 μM (given as 100-1000); read-out: IC50 for phospho-AKT, RAW 264.7 cell model
PARAMETER_MEASURED: IC50

Field: example entries. Status: answers known.
# RECORD_SMILES, IC50
records = [
    ("C[C@H](Nc1ncnc(N)c1C#N)c1cc2cccc(Cl)c2c(=O)n1-c1ccon1", "100 to 1000 nM"),
    ("C[C@H](Nc1nc(N)ncc1-c1cccc(S(=O)(=O)N(C)C)c1)c1cc2cccc(Cl)c2c(=O)n1-c1ccccc1", "< 100 nM"),
    ("C[C@H](Nc1nc(N)ncc1C#N)c1cc2cccc(Cl)c2c(=O)n1C1CC1", "100 to 1000 nM"),
]

Now let's try a different one.
What value of IC50 has been recorded for this entry: "COC(=O)c1cccc(-n2c([C@H](C)Nc3nc(N)ncc3C#N)cc3cccc(Cl)c3c2=O)c1"
< 100 nM

* * *

System: phospho-AKT in RAW 264.7 cells (PI3Kγ)
Assay: PI3Kγ selective assay, phospho-AKT in RAW 264.7 cells
Format: cell-based
Conditions: Mus musculus, RAW264.7; stimulated with C5a; ranges less than 100 nM and between 100 nM and 1 μM (given as 100-1000); read-out: IC50 for phospho-AKT, RAW 264.7 cell model
pIC50: −log10 of the molar value.
PARAMETER_MEASURED: pIC50

Solved cases (2 shown):
# COMPOUND, pIC50
measured = [
    ("CC(=O)c1cnc(N)nc1N[C@@H](C)c1cc2cccc(Cl)c2c(=O)n1-c1ccccc1 [Compound 394]", "> 7.00"),
    ("CC(C)C(=O)c1cnc(N)nc1N[C@@H](C)c1cc2cccc(Cl)c2c(=O)n1-c1ccccc1 [Compound 424]", "6.00 to 7.00"),
]

Record lookup: for phospho-AKT in RAW 264.7 cells (PI3Kγ), what pIC50 belongs to C[C@H](Nc1nc(N)ncc1C(=O)C1CC1)c1cc2cccc(Cl)c2c(=O)n1-c1ccccc1 [Compound 425] ?
6.00 to 7.00

Any idea what pIC50 came out for COc1ncc(-c2cnc(N)nc2N[C@@H](C)c2cc3cccc(Cl)c3c(=O)n2-c2ccccc2)s1 [Compound 382] on phospho-AKT in RAW 264.7 cells (PI3Kγ)?
> 7.00

Item C[C@H](Nc1nc(N)ncc1-c1cncc(S(C)(=O)=O)c1)c1cc2cccc(Cl)c2c(=O)n1-c1ccccc1 [Compound 401] with phospho-AKT in RAW 264.7 cells (PI3Kγ) - pIC50?
6.00 to 7.00

Hi! What's the reported pIC50 for C[C@H](Nc1nc(N)ncc1C#N)c1cc2cccc(Cl)c2c(=O)n1C [Compound 276] on phospho-AKT in RAW 264.7 cells (PI3Kγ)?
> 7.00

Can you look up pIC50 on phospho-AKT in RAW 264.7 cells (PI3Kγ) for COc1cc(-c2cccc3cc(CNc4nc(N)ncc4C#N)n(-c4ccccc4)c(=O)c23)ccn1 [Compound 242] ?
6.00 to 7.00

API: value(readout=pIC50, system=phospho-AKT in RAW 264.7 cells (PI3Kγ)) for record C[C@H](Nc1nc(N)ncc1-c1cccc(S(=O)(=O)N2CCCC2)c1)c1cc2cccc(Cl)c2c(=O)n1-c1ccccc1 [Compound 419]
> 7.00

// fetch phospho-AKT in RAW 264.7 cells (PI3Kγ) pIC50 for C[C@H](Nc1nc(N)ncc1C#N)c1cc2cccc(Cl)c2c(=O)n1-c1c(F)cccc1F [Compound 279]
> 7.00

Request body: readout pIC50, system phospho-AKT in RAW 264.7 cells (PI3Kγ), query C[C@H](Nc1nc(N)ncc1-c1cccc(S(=O)(=O)N2CCCCC2)c1)c1cc2cccc(Cl)c2c(=O)n1-c1ccccc1 [Compound 157] . Return the value.
> 7.00

Recorded pIC50 for C[C@H](Nc1nc(N)ncc1-c1cscn1)c1cc2cccc(-c3ccc(=O)n(C)c3)c2c(=O)n1-c1ccccc1 [Compound 393] with phospho-AKT in RAW 264.7 cells (PI3Kγ), please?
6.00 to 7.00

For the record Cc1ncc(-c2cccc3cc([C@H](C)Nc4nc(N)ncc4C#N)n(C(C)C)c(=O)c23)cn1 [Compound 328] , what value of pIC50 is listed for phospho-AKT in RAW 264.7 cells (PI3Kγ)?
6.00 to 7.00

This collection of values is drawn from patent US8785470B2.
